Each entry below carries its recorded inhibition.
- experimental-target: Hexose transporter 1 (Plasmodium falciparum) (UniProt O97467)
- assay-info: ST_JUDE_LEISH: Cytotoxicity at 2uM final concentration against transgenic Leishmania Mexicana promastigotes LmPfHT that are glucose transport deficient and complemented with the Plasmodium falciparum hexose transporter. Activity is measured by DNA content using SYBR green in vitro
- Format: functional
Respond numerically; units are % and should not be typed.

Study these solved cases before continuing.
O=C1C(c2ccccc2)=C(Nc2cccc(OC(F)(F)C(F)F)c2)c2ccccc21 ... 4.03
O=C(N[C@@H](CC1CCCCC1)C(=O)NC1CCCc2ccccc21)c1ccc(O)c(-c2cccc(C(F)(F)F)c2)c1 (some centres not stated) ... 1.73
O=C(NC1CCCCCC1)C1CCCN(C(=O)c2ccc(O)c(-c3ccc(Cl)c(Cl)c3)c2)C1 (configuration not stated) ... 2.31
CCCCOC(=O)NCCCC[C@H](NC(=O)OC(C)(C)C)C(=O)N[C@H](C(=O)OC(c1ccccc1)c1ccccc1)[C@H]1O[C@@H](n2ccc(=O)[nH]c2=O)[C@@H]2OC(C)(C)O[C@@H]21 ... 0.71
c1ccc(COc2ccc(Cn3ccc(-c4ccc(-n5ccnc5)cc4)n3)cc2)cc1.c1ccc(COc2ccc(Cn3nccc3-c3ccc(-n4ccnc4)cc3)cc2)cc1 ... 1.54

Fill in: inhibition of `CC1(C)CCCN(C(=O)c2cccc(-n3nc(-c4ccc(Cl)cc4)cc3N)c2)C1` is ___
1.98

Do the same for `O=C(NC1CC1)C1CCN(Cc2cc3ccccc3n2Cc2ccc(Cl)cc2)CC1` please
-1.61

Do the same for `CC(C)(Oc1c(C2CCN(CCCCNC(=O)c3ccc(-c4ccc(C#N)cc4)cc3)CC2)ccc2c1CCCC2)C(N)=O` please
0.7

Do the same for `O=C(Nc1ccccc1)Nc1cccc(-c2ccc(-c3nc4cc(C(F)(F)F)ccc4[nH]3)cc2)c1` please
4.53

Do the same for `Cc1cc(C)cc(CC(=O)N2CCC(n3c(C)nc4ccc(C)cc43)CC2)c1` please
1.45

Do the same for CS(=O)(=O)Nc1ccc2[nH]cc(C3CCN(CC(O)C4CCN(C(=O)/C=C/c5ccc(Cl)c(Cl)c5)CC4)CC3)c2c1 (configuration not stated) please
2.94

Do the same for `CC(C)Cc1csc(NC(=O)C=Cc2ccco2)c1C(=O)O` please
0.8

Do the same for `CN(C)S(=O)(=O)n1ccc2c3c(N)nc(N)nc3ccc21` please
46.3

Do the same for `N=C(NCCCCC1CCCCC1)c1cccc(C(=N)NCCCCC2CCCCC2)n1` please
0.98

Do the same for `CCOc1cc(C(=O)NC2CCN(Cc3ccccc3)CC2)ccc1-c1nc2cc(Cl)c(F)cc2[nH]1` please
2.49

Do the same for CC1(C)OC[C@]2(C)[C@@H](CC[C@]3(C)C4=CC(=O)CCC4CC[C@@H]23)O1 (some centres not stated) please
1.6
